Measured values drawn from the supplement of paper PMC9170038 for this set.

System: K4 kissing-loop RNA reporter;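 further: bound reporter read as fluorescence of individual clusters on recovered sequencing chips by microscopy, with normalized cluster intensities fitted with a binding model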
ASSAY NAME: apparent KD of K4 kissing-loop reporter; higher = weaker reporter binding
MEASUREMENT CONTEXT: Eterna round: R107; input ligand: none
# binarize apparent KD of K4 kissing-loop reporter: threshold 200 nM inclusive, high side 1, low side -1

Inquiry: Could you please find out whether UGUGAUGAGUAGAGUGAUGUUUUGAAGGAUACCAGAGUGUUGUUAUUCCCUUGGCAGCUUGAGUGAUGUUUGAUGUUGUUGUAGU [zizmullin] has apparent KD of K4 kissing-loop reporter that meets 200 nM or exceeds it?
Reply text: 1

Inquiry: Could you please find out whether AAAGUUGCAAGUGAUACCAGACGAGUGAAGGGAAGUAAUUAAUUAGGAGUGAUGUUCCGCGUCCCUUGGCAGCACUUUGUAAUUU [Exclusion Theophylline B GF 25] has apparent KD of K4 kissing-loop reporter that meets 200 nM or exceeds it?
Reply text: -1

Inquiry: Could you please find out whether AAGUGUGUGGCGGCCGCCACUAGAAUCCAGUGAUGUUGGAGUUAUCAGAUAAAUGAUAAUCAACAUAGGACCGGGCCAUAUAGAA [Same State - Tryptophan B (Freestyle 5)] has apparent KD of K4 kissing-loop reporter that meets 200 nM or exceeds it?
Reply text: 1

Inquiry: Could you please find out whether ACCAUCAAAGAUGGCCAGGACUCAACUGAUACCAGAGUGGAAACACUCCCUUGGCAGCAGGUGAGUGAUGUUCACGAGUCCUGGA [Omel KL Theo A SS B v8] has apparent KD of K4 kissing-loop reporter that meets 200 nM or exceeds it?
Reply text: 1

Inquiry: Could you please find out whether AACUUAAUUUAUAAGCAGUGAUGUUGCUCACGAGGACCGGUACGGCCGCCACUCGAUCGGACUUAGGUCUUCAAUUAUUUCUUAA [JR_ExcTryptoA_Sub018] has apparent KD of K4 kissing-loop reporter that meets 200 nM or exceeds it?
Reply text: -1

Inquiry: Could you please find out whether UUAAUAAUUCAAGGAUAUGUUUUCUAUUUCGAGUGAUGUUCGGUAUUAAUAAAUUUAAUAGAUUAUACAGAAGGUGAUGGAUAGU [Cynwulf-mod#5] has apparent KD of K4 kissing-loop reporter that meets 200 nM or exceeds it?
Reply text: -1

Inquiry: Could you please find out whether GCCGUACGCAUGGAUACCAGUCAAGAUCAGUGAUGUUGAUCUUUUAUAGAGCCUACAUUUGACCCUUGGCAGCCAUGCGUACGGC has apparent KD of K4 kissing-loop reporter that meets 200 nM or exceeds it?
Reply text: 1

Inquiry: Could you please find out whether UGGAUAUAGUGAUGUUAUAUAGAGAUGGAUACCAGCAAAGAGAAUUGCCCUUGGCAGCCGAAAGAAGUAUCAUUAGAGAAGAAUG [ExTheophyl.Af] has apparent KD of K4 kissing-loop reporter that meets 200 nM or exceeds it?
Reply text: 1

Inquiry: Could you please find out whether UGACUGGAUGGAAGGAGCGCUAAACUCCUAGUGAUGUUAGGGAAACGAGACAAAGUCUCGAAGCAGGUAGGUCGCCAUCUAGUCU [FiskerMod 14 - Jieux - Same State - Arginine B] has apparent KD of K4 kissing-loop reporter that meets 200 nM or exceeds it?
Reply text: -1
